target: MurF (UniProt P11880); assay: relative enzymatic activity vs untreated control (fraction); higher = less inhibition; settings: 100 µM; incubation time: 2 h at 37 C
Sequence (P11880 whole entry): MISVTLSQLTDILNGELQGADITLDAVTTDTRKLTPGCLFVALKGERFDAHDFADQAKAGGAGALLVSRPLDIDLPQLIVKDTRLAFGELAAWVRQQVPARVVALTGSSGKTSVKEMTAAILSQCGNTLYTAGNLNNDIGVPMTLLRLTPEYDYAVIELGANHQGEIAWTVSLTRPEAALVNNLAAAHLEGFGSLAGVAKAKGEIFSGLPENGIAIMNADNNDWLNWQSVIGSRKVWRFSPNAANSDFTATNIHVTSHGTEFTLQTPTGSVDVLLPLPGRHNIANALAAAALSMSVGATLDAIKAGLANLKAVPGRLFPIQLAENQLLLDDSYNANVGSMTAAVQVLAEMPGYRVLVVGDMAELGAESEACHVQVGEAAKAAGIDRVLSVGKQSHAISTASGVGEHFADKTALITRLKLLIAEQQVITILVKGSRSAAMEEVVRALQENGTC
# relative enzymatic activity >= 0.9 gives Fulfilled, anything below gives Not fulfilled

- COMPOUND: "C[C@H]1c2cccc(O)c2C(=O)C2=C(O)[C@]3(O)C(=O)[C@@H](C(N)=O)C(=O)[C@@H](N(C)C)[C@@H]3[C@@H](O)[C@@H]21"
  CLASS LABEL: "Fulfilled"
- COMPOUND: "CCn1cc(C(=O)O)c(=O)c2cc(F)c(N3CCNCC3)nc21"
  CLASS LABEL: "Fulfilled"
- COMPOUND: "CN(C)c1cc(CNCC(C)(C)C)c(O)c2c1C[C@H]1C[C@H]3[C@H](N(C)C)C(=O)[C@H](C(N)=O)C(=O)[C@@]3(O)C(=O)[C@@H]1C2=O"
  CLASS LABEL: "Fulfilled"
- COMPOUND: "CCCCCCCCCCCCC[N+](C)(C)Cc1ccccc1"
  CLASS LABEL: "Not fulfilled"
- COMPOUND: "CO/N=C(\\C(=O)N[C@@H]1C(=O)N2C(C(=O)O)=C(C)CS[C@H]12)c1csc(N)n1"
  CLASS LABEL: "Fulfilled"
- COMPOUND: "CON=C(C(=O)NC1C(=O)N2C(C(=O)[O-])=C(CSc3nc(=O)c([O-])nn3C)CSC12)c1csc(N)n1.O.O.O.[Na+].[Na+] (stereo not drawn)"
  CLASS LABEL: "Fulfilled"
- COMPOUND: "Cl.Cl.N=C(NCCCCCCNC(=N)NC(=N)Nc1ccc(Cl)cc1)NC(=N)Nc1ccc(Cl)cc1"
  CLASS LABEL: "Not fulfilled"
- COMPOUND: "Nc1c2ccccc2nc2ccccc12"
  CLASS LABEL: "Fulfilled"
- COMPOUND: "CO/N=C(\\C(=O)N[C@@H]1C(=O)N2C(C(=O)O)=C(CSc3nnnn3C)CS[C@H]12)c1csc(N)n1"
  CLASS LABEL: "Fulfilled"
- COMPOUND: "CN(C)c1ccc(O)c2c1CC1CC3C(N(C)C)C(O)=C(C(N)=O)C(=O)C3(O)C(O)=C1C2=O.Cl (stereo not drawn)"
  CLASS LABEL: "Fulfilled"
- COMPOUND: "COC(=O)N/N=C/c1ccc([N+](=O)[O-])o1"
  CLASS LABEL: "Fulfilled"
- COMPOUND: "CCN1CCN(C(=O)NC(C(=O)NC2C(=O)N3C(C(=O)O)=C(CSc4nnnn4C)CSC23)c2ccc(O)cc2)C(=O)C1=O (stereo not drawn)"
  CLASS LABEL: "Fulfilled"
- COMPOUND: "CN(C)C1C(O)=C(C(N)=O)C(=O)C2(O)C(O)=C3C(=O)c4c(O)cccc4C(C)(O)C3C(O)C12.Cl (stereo not drawn)"
  CLASS LABEL: "Fulfilled"
- COMPOUND: "CCN1CCN(C(=O)NC(C(=O)NC2C(=O)N3C2SC(C)(C)C3C(=O)[O-])c2ccccc2)C(=O)C1=O.[Na+] (stereo not drawn)"
  CLASS LABEL: "Fulfilled"
- COMPOUND: "O=C1CN(N=Cc2ccc([N+](=O)[O-])o2)C(=O)N1"
  CLASS LABEL: "Fulfilled"
- COMPOUND: "O=c1[nH]c(=O)n([C@H]2C[C@H](O)[C@@H](CO)O2)cc1F"
  CLASS LABEL: "Fulfilled"
- COMPOUND: "CCn1cc(C(=O)O)c(=O)c2cnc(N3CCNCC3)nc21"
  CLASS LABEL: "Fulfilled"
- COMPOUND: "COC12C(COC(N)=O)C3=C(C(=O)C(C)=C(N)C3=O)N1CC1NC12 (stereo not drawn)"
  CLASS LABEL: "Fulfilled"
- COMPOUND: "CCC1OC(=O)C(C)C(=O)C(C)C(OC2OC(C)CC(N(C)C)C2O)C(C)(OC)CC(C)C(=O)C(C)C2N(CCCCn3cnc(-c4cccnc4)c3)C(=O)OC12C (stereo not drawn)"
  CLASS LABEL: "Not fulfilled"
- COMPOUND: "CC(N)O.Cc1cc(CC(C)CC(C)(C)C)n(O)c(=O)c1 (stereo not drawn)"
  CLASS LABEL: "Not fulfilled"
- COMPOUND: "NC(=O)N/N=C/c1ccc([N+](=O)[O-])o1"
  CLASS LABEL: "Fulfilled"
- COMPOUND: "NCC1OC(OC2C(N)CC(N)C(OC3OC(CO)C(O)C(N)C3O)C2O)C(N)C(O)C1O.O=S(=O)(O)O (stereo not drawn)"
  CLASS LABEL: "Fulfilled"
- COMPOUND: "O=C(O)P(=O)(O)O"
  CLASS LABEL: "Fulfilled"
- COMPOUND: "CN1CCN(c2c(F)cc3c(=O)c(C(=O)O)cn4c3c2OCN4C)CC1"
  CLASS LABEL: "Fulfilled"
- COMPOUND: "Cn1nnnc1SCC1=C(C(=O)[O-])N2C(=O)C(NC(=O)C(O)c3ccccc3)C2SC1.[Na+] (stereo not drawn)"
  CLASS LABEL: "Fulfilled"
